assay: NCI Yeast Anticancer Drug Screen. Data for the sgs1 mgt1 strain (AID 161);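 note: 0% = growth of cultures given vehicle only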; settings: S. cerevisiae sgs1 mgt1 strain, at 5.0 µM (retest, dose inferred, filed as 0.5)
About 79,000 compounds went through this panel and 15% of them were active in at least one assay; those are over-represented in the sample as a whole. Active and inactive are the calls of the source. Cut-off read from the data, not from the text of the source: active = growth inhibition above about 70%; inactive = the rest. Where a SMILES comes first, the peptide text is derived from it. [ ]: non-standard residue; d: D form. Phe(4-Cl) = N[CH](Cc1ccc(Cl)cc1)C(=O)O; 3Pal = N[CH](Cc1cccnc1)C(=O)O
Tick one outcome: active, inactive

Some solved entries appear below for comparison.
| Molecule | Classification |
| --- | --- |
| CCCCCCCCCCCCCC/C(=C/OCC[N+](C)(C)C)OC(C)=O (tested in a mixture with another compound) | active |
| O=C(N/N=C/c1ccccc1[O-])c1ccccc1O.O=C(N/N=C/c1ccccc1[O-])c1ccccc1O.[Mn+2] | inactive |
| Oc1ccc(O)c2c1N=NC21c2ccccc2Oc2ccccc21 | inactive |

Tell me the recorded outcome of this test for CC(=O)NC(Cc1ccc(Cl)cc1)C(=O)NC(Cc1ccc(Cl)cc1)C(=O)NC(Cc1cccnc1)C(=O)NC(CO)C(=O)NC(Cc1ccc(O)cc1)C(=O)NC(CCCN=C(N)N)C(=O)NC(CC(C)C)C(=O)NC(CCCN=C(N)N)C(=O)N1CCCC1C(=O)NC(C)C(=O)O (stereo not given) (Ac-[Phe(4-Cl)][Phe(4-Cl)][3Pal]SYRLRPA-OH; configuration not given here) .
inactive

Dear colleague, could you share the recorded outcome for COc1ccc(C(=O)C2C(=O)C(=O)OC2C2OC(=O)C(=O)C2C(=O)c2ccc(OC)cc2)cc1 (stereo not given) when you have a moment?
inactive

Record lookup: outcome of this test for CC(C)(C)SC(=O)C1(C)OC1c1ccc([N+](=O)[O-])cc1 (stereo not given) ?
inactive

For `C/C(=N/NC(=S)Nc1ccc(C)cc1)c1ccccn1` , what call appears in the results of this test?
inactive

Kindly provide the recorded test outcome for the following molecule: `Oc1cc(Br)ccc1/C=N/Nc1ccccn1`
inactive

Give the logged outcome of this assay for the following molecule: `CC(=O)N(C1=C(Cl)C(=O)c2ccccc2C1=O)c1ccc(C)cc1`
active

Tell me the assay call for Cc1ccc2c(C3Cc4ccccc4N3C(=O)/C=C\C(=O)O)c(C)[nH]c2c1 (stereo not given) please.
inactive

====

growth inhibition values, listed per item
Experiment: NCI Yeast Anticancer Drug Screen. Data for the rad50 strain (AID 155);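 note: 0% = growth of vehicle-only cultures of the same strain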
Details: S. cerevisiae rad50 strain growth inhibition; at 50.0 µM; stronger effect = higher value
Method: Growth inhibition of yeast strains with defined genetic alterations is measured as a screen for potential anti-cancer activity. Selected strains with alterations in DNA damage repair or cell cycle control were exposed to compounds and growth inhibition was measured relative to vehicle treated controls. The strain used in this assay is rad50
Compounds without any hit were thinned out: in the full panel of roughly 79,000, 15% have a hit.
Reply with just the number (in %).

| Compound | growth inhibition / % |
| --- | --- |
| [Cl][Sn]([O][Sn]([Cl])([c]1ccccc1)[CH]1CCCCC1)([c]1ccccc1)[CH]1CCCCC1 (stereo not drawn) | 88 |
| O=C(/C=C(\C(=O)c1ccccc1)N(/C(=C/C(=O)c1ccccc1)C(=O)c1ccccc1)c1ccccc1)c1ccccc1 | 92.2 |

Attention now shifts to the item below.
Report growth inhibition for COc1cccc2c1C(=O)c1c(O)c3c(c(O)c1C2=O)C[C@@](O)(C(=O)CO)C[C@@H]3OC1CC(N)CC(C)O1 (stereo partly drawn)
89.3

====

assay: NCI Yeast Anticancer Drug Screen. Data for the cln2 rad14 strain (AID 165);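 note: 0% = growth equal to vehicle treated cultures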; settings: S. cerevisiae cln2 rad14 strain, at 5.0 µM (retest, dose inferred, filed as 0.5), stronger effect = higher value
This is part of a sample that, as a whole, favours compounds with a hit. Of some 79,000 tested, about 15% had one in any assay.
Quantity Name: growth inhibition (%)
Respond with the bare value in %.

Observe how each entry below is paired with its result.
| Compound | growth inhibition / % |
| --- | --- |
| NNc1nc(Nc2ccccc2)nc(Nc2ccccc2)n1 | -9 |
| O=C1OC(OC/C(Br)=C(/Br)COC2OC(=O)C(Cl)=C2Cl)C(Cl)=C1Cl (stereo not given) | 71 |
| CC(=O)OCC(C(N)=O)(c1ccccc1)c1ccccc1 | -5 |
| Oc1ccc(-c2nnc(-c3ccccc3)nn2)cc1 | -47 |

Let us examine a further case.
Supply recorded growth inhibition for `CC(=O)Nc1ccc(-c2nnc(SCC(=O)Nc3ccc([N+](=O)[O-])cc3)o2)cc1` here.
4

====

assay: NCI Yeast Anticancer Drug Screen. Data for the mlh1 rad18 strain (AID 175); details: S. cerevisiae mlh1 rad18 strain growth inhibition; at 5.0 µM (retest, dose inferred, filed as 0.5)
About 79,000 compounds went through this panel and 15% of them were active in at least one assay; those are over-represented in the sample as a whole. Activity calls are given as the source filed them. Cut-off read from the data, not from the text of the source: active = growth inhibition above about 70%; inactive = the rest. Where a SMILES comes first, the peptide text is derived from it. [ ]: non-standard residue; d: D form. The star is where a group is joined. Phe(4-NO2) = N[CH](Cc1ccc([N+](=O)[O-])cc1)C(=O)O; Boc = CC(C)(C)OC(=O)*
Respond using exactly one of the listed classes: Y (active), N (inactive)

| Molecule | Classification |
| --- | --- |
| NC(=S)N/N=C\C12CC3CC(CC(C3)C1)C2 | Y |
| C1=C(c2ccccc2)OC(c2ccccc2)=C[P+]1(c1ccccc1)c1ccccc1 | Y |
| COc1ccc(/C=C2/C(=O)NC3SC=C(c4cccc([N+](=O)[O-])c4)N23)cc1 (stereo unspecified) | N |
| C=C(CN(C)C)C(=O)c1ccccc1 | N |
| C(=C\[n+]1ccc2ccccc2c1)/c1ccccc1 | N |

Returns: the outcome recorded for `Cc1ccc(C)c(N(c2ccccc2[N+](=O)[O-])S(C)(=O)=O)c1` in this assay.
N

Which result was noted for this molecule in the test: `CC(=C/c1ccccc1)/C=C1/NC(=S)N(/C=C2\C(=O)Oc3ccccc3C2=O)C1=O`
N

Per the assay record, what outcome was assigned to CNC(=O)CCC(NC(=O)OC(C)(C)C)C(=O)NC(Cc1ccc([N+](=O)[O-])cc1)C(=O)NCC(=O)NC (stereo unspecified) (Boc-Glu(NHMe)-[Phe(4-NO2)]-Gly-NHMe; configuration not given here) ?
N

Record request — test call for CCCCC1(CC)COC(c2ccccc2OC)OC1 (stereo unspecified)
N

Please indicate how the test categorized `O=[N+]([O-])c1cccc(F)c1O` .
N

Outcome? `Cc1cc2nc3[nH]c4c(Cl)cc(Cl)cc4c3nc2cc1C`
N

What was the test verdict on `O=P(O)(O)Oc1c(O)c2ccccc2c2ccccc12` ?
N

Short answer needed: outcome of this test for `O=C(O)CCC(O)=C1S(=O)(=O)OCCOS1(=O)=O` ?
N

Fill in: this test's call for N#CC(NNC(=O)c1ccccc1O)c1c(O)ccc2ccccc12 (stereo unspecified) is ___
N

// return assay outcome for `CCCCCCCC/C=C\CCCCCCCC(=O)NCC[N+](C)(C)C`
N

Can you look up the reported call for O=S(=O)(c1ccccc1)C1CN=NC1c1ccccc1 (stereo unspecified) for me?
N

Check the results log: what was the call for CC1(C(=O)O)CCC2(C)CCC3(C)C(=CC(=O)C4C5(C)CCC(O)C(C)(C)C5CCC43C)C2C1 (stereo unspecified) ?
N

Hello, I am checking results. What call was entered for `O=C(Nn1c(=O)c(=O)oc2ccccc21)C(F)(F)F` ?
N

GET /call?item= `O=C1c2cccc(O)c2C(=O)c2c(O)cc(CO)cc21` returns the recorded outcome of this test.
Y

// outcome(item) with item = `N#CSc1ccc(Nc2ccc(SC#N)cc2)cc1`
Y

====

assay: NCI Yeast Anticancer Drug Screen. Data for the mlh1 rad18 strain (AID 175); conditions: S. cerevisiae mlh1 rad18 strain growth inhibition; at 50.0 µM (retest, dose inferred, filed as 5.0)
About 79,000 compounds went through this panel and 15% of them were active in at least one assay; those are over-represented in the sample as a whole. Activity calls are given as the source filed them. Rule as the data show it: active = growth inhibition above about 70%; inactive = the rest.
# valid calls are 1.0 for active, 0.0 for inactive; nothing else

| Compound | Classification |
| --- | --- |
| CC1(C)CC(=O)C(CSC(=O)c2ccccc2)=C(O)C1 | 0.0 |
| O=S(Nc1ccccc1Br)c1ccccc1 (stereo not given) | 0.0 |
| C[N+]1(C)CCCC(OCCCCCCCCCCCCCCOC2CCC[N+](C)(C)C2)C1 (stereo not given) | 1.0 |
| O=C(/N=C1\N=Nc2nc(C(C(=O)c3cccs3)c3nc4n(c3O)/C(=N/C(=O)Nc3ccc(Cl)cc3)N=N4)c(O)n21)Nc1ccc(Cl)cc1 (stereo not given) | 0.0 |
| CCN(CC)CCC(=O)/C=C/c1ccc(C)cc1 | 1.0 |

Which outcome did this test record for the compound `OCCN1COc2cc3c(cc2C1)OCN(CCO)C3` ?
0.0

Check the results log: what was the call for `Cc1cccc(NC(=S)N/N=C(/c2ccccc2)c2ccccn2)c1` ?
1.0

Entry COc1ccc(-c2cc(-c3ccc4c(c3)CC(C)O4)nc(N)n2)cc1 (stereo not given) : call = ?
0.0

Query: recorded result category for `CCc1cccc(C(C)C)c1N1C(=O)C(=O)C(c2nc3ccccc3s2)C(=O)C1=O` in this test
0.0

In this assay, the call recorded for COc1cccc2c1C(=O)c1c(O)c3c(c(O)c1C2=O)C[C@@](O)(C(C)=O)C[C@@H]3OC1CC([N+]([O-])(Cc2ccccc2)Cc2ccccc2)C(O)C(C)O1 (stereo not given in full) was what?
1.0

# lookup: test call for `Nc1nc(-c2ccccn2)cc2cc(Cl)ccc12`
1.0

What was the test verdict on COc1ccc(C(CC(=O)c2ccccc2)Sc2ccccc2N)cc1 (stereo not given) ?
0.0
